Biological target: FRMPD2_1, Q68DX3
Sequence (Q68DX3 770-861): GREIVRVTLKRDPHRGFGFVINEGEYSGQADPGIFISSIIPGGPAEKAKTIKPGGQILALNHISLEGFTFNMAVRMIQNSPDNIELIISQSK
Experiment: holdup assay
Design: key: below the threshold = too weak to quantify, mostly under pKd 3.1 to 4
Conditions: plain residues with an end cap or a label only (N-terminal biotin on a linker: ttds)
Property measured: pKd

Solved cases below.
INSERT INTO results (binder, reported_result) VALUES
  ('IDNDTESTAL [ARHGAP17, Q68EM7]', 'below the threshold'),
  ('VLRLQSETSV [VANGL1, Q8TAA9]', 'below the threshold'),
  ('SSRTRRETQL [HPV16-E6, P03126]', 4.12),
  ('PKTPPTDTSV [KIR3DL3, Q8N743]', 'below the threshold'),
  ('SRPQRTQTQV [HPV67-E6, A4U7F2]', 3.79);

Request: Find the recorded pKd belonging to IYVPEAQTRL [DLGAP4, Q9Y2H0] and report it.
Result: below the threshold

Request: Find the recorded pKd belonging to RSLEEEESQL [GRASP, Q7Z6J2] and report it.
Result: below the threshold

Request: Find the recorded pKd belonging to ERKLSSESQV [LRP4, O75096] and report it.
Result: below the threshold
